Test system: Canis familiaris
Test: Inhibitory activity when administered intravenously in histamine-stimulated gastric fistula dog at 3 mg/kg, id
Assay type: functional
Conditions: Canis lupus familiaris, Stomach, in the assay text read “in” for “when administered intravenously in”
Exercise: state measured inhibition in vivo at 3 mg/kg for each of the compounds provided.
State the answer as a number, implicitly in %.

Please report the recorded inhibition in vivo at 3 mg/kg for Cc1ccc(C[S+]([O-])c2nc3ccccc3[nH]2)c(N)c1C (stereo unspecified) .
79

Another compound: COC(=O)c1cccc(C[S+]([O-])c2nc3ccccc3[nH]2)c1N (stereo unspecified)
28

Another compound: COc1c(C)cc(N)c(C[S+]([O-])c2nc3ccccc3[nH]2)c1C (stereo unspecified)
53

Another compound: CC(=O)Nc1ccccc1C[S+]([O-])c1nc2ccccc2[nH]1 (stereo unspecified)
37

Another compound: CCOC(=O)c1ccc(N)c(C[S+]([O-])c2nc3ccccc3[nH]2)c1 (stereo unspecified)
7

Another compound: Cc1cccc(C[S+]([O-])c2nc3ccccc3[nH]2)c1N (stereo unspecified)
44

Another compound: Cc1cccc(N)c1C[S+]([O-])c1nc2ccccc2[nH]1 (stereo unspecified)
44

Another compound: Nc1ccccc1C[S+]([O-])c1nc2cc(C(F)(F)F)ccc2[nH]1 (stereo unspecified)
37

Another compound: COc1ccc2[nH]c([S+]([O-])Cc3cccc(C)c3N)nc2c1 (stereo unspecified)
72

Another compound: CNc1ccccc1C[S+]([O-])c1nc2ccccc2[nH]1 (stereo unspecified)
21

Another compound: [O-][S+](Cc1ccccn1)c1nc2ccccc2[nH]1 (stereo unspecified) [TIMOPRAZOLE]
68

====

System: Canis familiaris
Assay: Inhibitory activity when administered intravenously in histamine-stimulated gastric fistula dog at 3 mg/kg, id
Format: functional
Conditions: Canis lupus familiaris, Stomach, in the assay text read “in” for “when administered intravenously in”
Class 1: inhibition in vivo at 3 mg/kg at least 20%. Class -1: inhibition in vivo at 3 mg/kg below 20%.

Confirm if inhibition in vivo at 3 mg/kg reported for the molecule Nc1ccccc1C[S+]([O-])c1nc2ccccc2[nH]1 (stereo unspecified) is 20% or above.
1

Another molecule: Cc1cc2nc([S+]([O-])Cc3ccccc3N)[nH]c2cc1C (stereo unspecified)
1

Another molecule: CCCCc1ccc(N)c(C[S+]([O-])c2nc3ccccc3[nH]2)c1 (stereo unspecified)
-1

Another molecule: COc1ccc2[nH]c([S+]([O-])Cc3cc(C)ccc3N)nc2c1 (stereo unspecified)
1

Another molecule: CN(C)c1ccccc1C[S+]([O-])c1nc2ccccc2[nH]1 (stereo unspecified)
-1

Another molecule: Cc1ccc(N)c(C[S+]([O-])c2nc3ccccc3[nH]2)c1 (stereo unspecified)
1

Another molecule: CCc1cccc(C[S+]([O-])c2nc3ccccc3[nH]2)c1N (stereo unspecified)
1

Another molecule: Nc1ccc(Cl)cc1C[S+]([O-])c1nc2ccccc2[nH]1 (stereo unspecified)
1

Another molecule: COc1ccc2[nH]c([S+]([O-])Cc3ncc(C)c(OC)c3C)nc2c1 (stereo unspecified) [OMEPRAZOLE]
1

Another molecule: CCc1ccc(N)c(C[S+]([O-])c2nc3ccccc3[nH]2)c1 (stereo unspecified)
1

Another molecule: Cc1cccc2[nH]c([S+]([O-])Cc3ccccc3N)nc12 (stereo unspecified)
1
